Molecular target: UniProtKB P28845
Sequence (P28845 whole entry): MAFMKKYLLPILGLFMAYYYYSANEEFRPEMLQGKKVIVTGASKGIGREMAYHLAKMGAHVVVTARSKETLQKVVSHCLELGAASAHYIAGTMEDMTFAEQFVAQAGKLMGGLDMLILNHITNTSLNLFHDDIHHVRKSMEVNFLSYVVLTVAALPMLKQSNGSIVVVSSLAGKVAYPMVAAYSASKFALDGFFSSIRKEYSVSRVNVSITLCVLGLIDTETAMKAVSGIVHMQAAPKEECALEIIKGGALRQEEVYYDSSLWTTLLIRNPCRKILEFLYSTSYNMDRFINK
Test: Inhibition of FLAG tagged human recombinant 11beta-HSD1 reductase activity expressed in Trichoplusia ni Hi5 cells
Metric: pIC50
Note: pIC50 values are expressed as the negative base-10 logarithm of concentration in M.

Exam item: # return recorded pIC50 for input CC(C)n1c(-c2ccc(OC(F)(F)F)cc2)nnc1C1(c2ccc(F)cc2)CC1
Marked response: 8.80
